Catalogue of z-score values
Test: PSAC antagonists in infected red cells, primary screen, cell-based, P. falciparum Indochina, OD700, 18 h (AID 1157)
Conditions: P. falciparum Indochina infected erythrocytes, osmotic lysis OD700, 18 h; higher = more signal, called active from +8 up or from −8 down
# output: bare number, no unit

Illustrative cases are given below, each with its answer.
C=CC[C@]1(C(=O)NCC(O)CO)N=C(c2ccc(OCCCO)cc2)O[C@H]1c1ccccc1CN=[N+]=[N-] (stereo partly drawn) : 0.839
COC(=O)[C@@]1(Cc2ccc(F)cc2)[C@H]2c3cc(C(=O)N4CCCC4)n(Cc4ccc(OC(F)(F)F)cc4)c3C[C@H]2CN1C(=O)c1ccccc1 : 0.642
CCOC(=O)C[C@H]1[C@H](OC(=O)c2ccccc2-c2ccccc2)[C@@H](NC(=O)CC(C)C)c2cc(OCCCO)ccc2N1C(=O)c1ccccc1 : -2.84
C=C[C@H](C)[C@@H](OC(=O)Nc1ccc(SC)cc1)c1ccc(OCCO)cc1 : 2.27
C=C(C(=O)CC[C@@H](OC(=O)c1cccnc1)c1cccc(OCCO)c1)C(C)C : -1.02

-- ask Which z-score value belongs to CS(=O)(=O)CCOC(=O)C1=CC(CCCO)=CC(C2CC2)N(Cc2sc3ccccc3c2Cl)C=C1C(=O)OCCS(C)(=O)=O (stereo not drawn) ?
-- reply 1.41

-- ask // repeat for `C=CCOC(=O)[C@H]1[C@@H]2C(=O)O[C@@H](c3ccccc3)[C@@H](c3ccccc3)N2[C@@H](c2ccc(OCCOC(=O)[C@H]3C[C@H]4C(=O)NCC(=O)N4[C@H]3c3cccc(OCCO)c3)cc2)[C@]12C(=O)Nc1ccc(I)cc12` and report
-- reply 1.58

-- ask // repeat for `C=CCOC(=O)[C@H]1[C@@H]2C(=O)O[C@@H](c3ccccc3)[C@@H](c3ccccc3)N2[C@@H](c2ccc(OCCOC(=O)[C@H]3C[C@H]4C(=O)NCC(=O)N4[C@H]3c3ccc(O)cc3)cc2)[C@]12C(=O)Nc1ccccc12` and report
-- reply 0.987

###

Molecular target: Fibroblast growth factor 10 (Homo sapiens)
Experiment: FGF10 binders on small-molecule microarrays, primary screen, biochemical, small-molecule microarray, 635 nm fluorescence (AID 1102)
Conditions: FGF10 binding, fluorescence 635 nm, higher = more signal
Catalogue of composite z-score values
# output: bare number, no unit

Illustrative cases are given below, each with its answer.
Cc1ccc(S(=O)(=O)N2[C@@H](c3ccccc3)C(C(=O)O)=CC[C@H]2c2ccc(F)cc2)cc1 : 0.876
C=C[C@@H](CO)NS(=O)(=O)c1ccc(Br)cc1 : -0.398
COCCOC(=O)N1C(=O)[C@@]2(c3cc(C#CC4=CCCCC4)ccc31)[C@H](C(=O)N1CCCCCCC1)[C@H]1C(=O)O[C@H](c3ccccc3)[C@H](c3ccccc3)N1[C@@H]2c1ccccc1OCCO : 0.536

-- ask # get_value(readout= composite z-score, system= Fibroblast growth factor 10 (Homo sapiens)) for `CCOC(=O)C[C@H]1[C@H](OC(=O)c2ccc(-c3ccccc3)cc2)[C@@H](NC(=O)C2CCCCC2)c2cc(OCCCO)ccc2N1C(=O)Cc1ccc(OC)cc1`
-- reply 0.135

###

Target: Homeobox protein Hox-A13 (Mus musculus) (UniProt Q62424)
Sequence (Q62424 whole entry, looked up): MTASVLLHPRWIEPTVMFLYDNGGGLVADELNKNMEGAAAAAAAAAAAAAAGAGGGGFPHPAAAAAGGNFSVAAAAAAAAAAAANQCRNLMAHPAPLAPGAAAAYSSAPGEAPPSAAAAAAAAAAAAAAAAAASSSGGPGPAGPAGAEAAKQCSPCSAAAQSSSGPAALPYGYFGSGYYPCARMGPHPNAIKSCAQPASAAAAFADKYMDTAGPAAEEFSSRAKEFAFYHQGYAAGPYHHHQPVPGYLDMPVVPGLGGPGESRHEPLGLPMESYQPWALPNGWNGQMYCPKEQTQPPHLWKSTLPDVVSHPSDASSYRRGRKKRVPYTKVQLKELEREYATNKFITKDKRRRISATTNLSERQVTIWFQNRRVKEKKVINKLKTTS
Test: inhibitors of HoxA13-DNA binding, primary screen, biochemical, fluorescence polarization, labeled oligonucleotide (AID 1185)
Details: 15 min, higher = more signal, called active from +8 up or from −8 down
OBSERVATION_TYPE: z-score
# output: bare number, no unit

COc1cccc(C)c1NC(=O)O[C@H]1[C@H](OC(=O)Nc2ccccc2-c2ccccc2)[C@@H](OC(=O)Nc2ccccc2-c2ccccc2)[C@@H](OC)O[C@@H]1CO : -3.57
COC(=O)C(CC#Cc1ccc2c(c1)[C@]1(C(=O)N2)[C@H](c2ccccc2OCCO)N2[C@H](c3ccccc3)[C@H](c3ccccc3)OC(=O)[C@H]2[C@@H]1C(=O)N1CCN(c2ncccn2)CC1)C(=O)OC : -1.41
[N-]=[N+]=NCc1ccccc1[C@H]1OC(c2ccc(OCCCO)cc2)=N[C@@]1(Cc1ccccc1N=[N+]=[N-])C(=O)O : -4.41
CN1C(=O)C2C(C1=O)C1C=C(CCCO)C2C(C2CC2)N1C (stereo not drawn) : -6.6
[N-]=[N+]=NCc1ccccc1[C@H]1OC(c2ccc(OCCCO)cc2)=N[C@@]1(Cc1ccccc1N=[N+]=[N-])C(N)=O : -6.25

-- ask Which z-score value belongs to `COCCOC(=O)N1C(=O)[C@@]2(c3cc(C#CCNC(N)=O)ccc31)[C@H](C(=O)N1CCN(c3ncccn3)CC1)[C@H]1C(=O)O[C@H](c3ccccc3)[C@H](c3ccccc3)N1[C@@H]2c1ccc(O)cc1` ?
-- reply -0.508

-- ask // repeat for `C=CC[C@@]1(C(=O)NCCCOC)N=C(c2ccc(OCCCO)cc2)O[C@@H]1c1ccccc1CN=[N+]=[N-]` and report
-- reply -5.2

-- ask // repeat for `Cc1ccc(S[C@]2(C(=O)NC(C)C)CC(=O)N(Cc3ccccc3)[C@@H]2c2ccc(CO)cc2I)cc1` and report
-- reply -3.33

-- ask // repeat for `C[N+](C)(C)CCCC[C@@H]1NC(=O)[C@H]2C[C@@H](C(=O)O)[C@@H](c3ccc(O)cc3)N2C1=O` and report
-- reply -1.42

-- ask // repeat for `COc1cccc(C)c1NC(=O)O[C@H]1[C@H](OC(=O)Nc2ccc3c(c2)OCO3)[C@H](OC(=O)Nc2ccc3c(c2)OCO3)[C@@H](OC)O[C@@H]1CO` and report
-- reply -7.67

-- ask // repeat for `COCCOC(=O)N1C(=O)[C@@]2(c3cc(C#CC4=CCCCC4)ccc31)[C@H](c1ccc(O)cc1)N1[C@H](c3ccccc3)[C@H](c3ccccc3)OC(=O)[C@H]1[C@@H]2C(=O)N1CCc2cc(OC)c(OC)cc2C1` and report
-- reply 0.0698

-- ask // repeat for `COCCCNC(=O)[C@@]1(Cc2ccccc2I)c2ccccc2C(=O)N(Cc2ccccc2C(F)(F)F)[C@H]1c1ccc(CO)cc1` and report
-- reply -4.3

-- ask // repeat for C[C@]12C(=O)N(CCO)[C@@H]3C(=O)N(c4ccc(Cl)cc4)CC=CC31O[C@@H]1/C=C\CCCOC(=O)C12 (stereo partly drawn) and report
-- reply -3.46

The measurements presented in this section are drawn from PubChem BioAssay.
